assay-info: H1N1 influenza NS1A inhibitors, functional cell based assay (AID 504329)
assay-context: percent inhibition, at 12.5 µM, stronger effect = higher value
Hit rate of the full screen: of about 340,000 compounds, about 1,000 (0.29%) were called active. These entries were drawn from the full list. Results with a measured potency or affinity are listed apart.
In this section, each of the molecules is paired with its reported inhibition.
readout-label: inhibition (%)

- molecule: "CC(C)CCNC(=O)CCc1nnc2n(CCCOC(C)C)c(=O)c3ccccc3n12"
  result: -5.28
- molecule: "CC(C)C[C@H]1COCCS(=O)(=O)N1Cc1cccc(C(F)(F)F)c1"
  result: -20
- molecule: "O=C(CSc1ccccn1)Nc1ccc(NC(=O)CSc2ccccn2)cc1"
  result: 3.94
- molecule: "O=C(CSc1ccc(C(F)(F)F)cn1)Nc1ccccc1"
  result: -2.05
- molecule: "O=C(c1cccc2ccccc12)N1CCN(c2ccc([N+](=O)[O-])c(NCc3ccco3)c2)CC1"
  result: 7.93
- molecule: "CCOC(=O)c1sc(C)c2c(=O)n(CCCN3CCOCC3)cnc12"
  result: -0.01
- molecule: "Cc1ccc(NC(=O)COc2ccc(C(=O)c3ccccc3)cc2)c(O)c1"
  result: 8.15
- molecule: "CN(C)CCCNC(=O)c1ccccn1"
  result: -2.43
- molecule: "COc1ccc2c(COC(=O)CC3Sc4ccccc4NC3=O)cc(=O)oc2c1 (stereo not drawn)"
  result: -3.14
- molecule: "COc1cc(NCc2ccccc2O)c2ncccc2c1"
  result: -8.87
- molecule: "CN(C)CCCNc1c2ccccc2nc2ccccc12"
  result: -0.82
- molecule: "O=C(Cc1ccc(Cl)cc1)Nc1ccccc1C(=O)Nc1ccc(C(=O)O)cc1"
  result: 9.57
- molecule: "CCOC(=O)c1cc2c(C)n(-c3ccc(N(C)C)cc3)c(C)c2cc(C(=O)OCC)c1=O"
  result: -3.74
- molecule: "C[n+]1c(-c2ccccc2)cc(-c2ccc(O)cc2)cc1-c1ccccc1"
  result: -0.313
- molecule: "O=C(Cn1nnc(-c2ccccc2F)n1)Nc1ccc2c(c1)OCCO2"
  result: -0.7
- molecule: "CN(C)c1ccc(/C=C2\\CCCc3c2nc2ccccc2c3C(=O)O)cc1"
  result: 2.2
- molecule: "O=[N+]([O-])c1ccc([N+](=O)[O-])c(Nc2ccc(N3CCOCC3)cc2)c1"
  result: -0.167
- molecule: "O=C(CSc1nnc(-c2ccccn2)o1)Nc1ccccc1"
  result: -0.31
- molecule: "Cc1cccc(C)c1NC(=O)c1sccc1SCC#N"
  result: -4.84
- molecule: "N#CCCN1CCN(C2=NC(=O)/C(=C\\c3cccs3)S2)CC1"
  result: 8.67
- molecule: "CN(C)c1ccc(/C=C/c2nc3ccccc3c(=O)n2-c2ccc(C(=O)O)cc2)cc1"
  result: -25.3
- molecule: "O=c1c2ccccc2nc(SCCN2CCCCC2)n1CCc1ccccc1"
  result: 6.75
- molecule: "O=[N+]([O-])c1ccc(N2CCOCC2)c([N+](=O)[O-])c1"
  result: 4.03

====

inhibition values for the compounds below.
assay-info: H1N1 influenza NS1A inhibitors, functional cell based assay (AID 504329)
assay-context: percent inhibition, at 12.5 µM, stronger effect = higher value
Among all 340,000 compounds or so, about 1,000 (0.29%) were called active. These entries were drawn from the full list. Potency and affinity values are given separately.

- compound: "O=S(=O)(c1ccc(NC(=S)N/N=C/c2ccc(O)c(O)c2)cc1)N1CCOCC1"
  unit-descriptor: "%"
  inhibition: 7.64
- compound: "CC1(C)CC(=O)C2=C(C1)OC(=O)CC2c1cccs1 (stereo unspecified)"
  unit-descriptor: "%"
  inhibition: -6.75
- compound: "COc1ccc(NC(=S)NCCc2ccc(S(N)(=O)=O)cc2)c(OC)c1"
  unit-descriptor: "%"
  inhibition: 0.63
- compound: "O=c1[nH]c(=O)n(Cc2ccco2)c(O)c1/C=N/N1CCCCCC1"
  unit-descriptor: "%"
  inhibition: 12.8
- compound: "O=C(CCCOc1ccccc1)Nc1cccc(S(=O)(=O)N2CCCCC2)c1"
  unit-descriptor: "%"
  inhibition: -17.5
- compound: "O=S(=O)(c1cc(F)ccc1F)N1CCN(C2CCCCC2)CC1"
  unit-descriptor: "%"
  inhibition: 0.25
- compound: "COC(=O)C1=C(O)CSC1=Nc1ccc(C)cc1"
  unit-descriptor: "%"
  inhibition: -6.3
- compound: "CC(C)[C@H](NC(=O)OCc1ccccc1)C(=O)OCC(=O)Nc1ccc(N2CCOCC2)cc1"
  unit-descriptor: "%"
  inhibition: -2.26
- compound: "NNC(=S)Nc1ccc(S(=O)(=O)N2CCOCC2)cc1"
  unit-descriptor: "%"
  inhibition: -2.99
- compound: "CCOC(=O)C(C)Oc1cccc2c(=O)n(CC(=O)NCCc3ccccc3)ccc12 (stereo unspecified)"
  unit-descriptor: "%"
  inhibition: 0.03
- compound: "CCOc1ccc2c(c1)-c1c(ssc1=S)C(C)(C)N2"
  unit-descriptor: "%"
  inhibition: 21.5

====

assay-info: H1N1 influenza NS1A inhibitors, functional cell based assay (AID 504329)
assay-context: percent inhibition, at 12.5 µM, stronger effect = higher value
Among all 340,000 compounds or so, about 1,000 (0.29%) were called active. These entries were drawn from the full list. Results with a measured potency or affinity are listed apart.
Measured inhibition accompanies every entry in the list below.

- compound: "COc1ccc(COC(=O)CCS(=O)(=O)c2ccc(C)cc2)cc1F"
  unit-descriptor: "%"
  inhibition: -5.19
- compound: "CCn1nc(C)c(/C=N\\NC(=O)c2cccc(OC)c2)c1C"
  unit-descriptor: "%"
  inhibition: -6.26
- compound: "O=C(CSCc1ccc([N+](=O)[O-])cc1)Nc1ccccc1C(=O)O"
  unit-descriptor: "%"
  inhibition: -16.2
- compound: "Cc1noc(C)c1CSc1nnc2scc(-c3ccccc3)n12"
  unit-descriptor: "%"
  inhibition: 0.06
- compound: "Cc1cc(=O)[nH]c(N=N/C(=N/Nc2ccc(O)cc2)c2ccccc2)n1"
  unit-descriptor: "%"
  inhibition: 13.6
- compound: "Cc1cc(C(=O)Nc2cccc(S(=O)(=O)N3CCOCC3)c2)c2ccccc2n1"
  unit-descriptor: "%"
  inhibition: -7.61
- compound: "O=C(/C(=N\\Nc1ccc(Br)cc1)Sc1nnnn1-c1ccccc1)c1ccccc1"
  unit-descriptor: "%"
  inhibition: 4.24
- compound: "CCN(CC)S(=O)(=O)c1ccc(Cl)c(NC(=O)COC(=O)c2c(C)noc2C)c1"
  unit-descriptor: "%"
  inhibition: -8.29
- compound: "CC1CCCN(C(=O)CNC(=O)c2cccs2)C1 (configuration not stated)"
  unit-descriptor: "%"
  inhibition: -11.6
- compound: "CCCN(CC(=O)Nc1ccccc1C)C(=O)CCNC(=O)c1ccccc1Cl"
  unit-descriptor: "%"
  inhibition: 0.78
- compound: "COc1ccc(N=Nc2ccc(N)nc2N)cc1"
  unit-descriptor: "%"
  inhibition: 20.4
- compound: "COc1cccc([C@@H]2CC=C(C(=O)O)[C@H](c3ccc(Br)cc3)N2S(=O)(=O)c2ccc(C)cc2)c1"
  unit-descriptor: "%"
  inhibition: -4.53
- compound: "CC(C)CCNC(=O)CSc1nnc(-c2ccc(S(=O)(=O)N3CCCC3)cc2)n1C"
  unit-descriptor: "%"
  inhibition: 1.62
- compound: "CS(=O)(=O)N1N=C(c2ccco2)CC1c1ccco1 (configuration not stated)"
  unit-descriptor: "%"
  inhibition: 0.65
- compound: "CCOC(=O)N1CCN(C(=O)c2cn(CC)c3ccc(S(=O)(=O)N4CCC(C)CC4)cc3c2=O)CC1"
  unit-descriptor: "%"
  inhibition: -9.88
- compound: "COc1ccc(N/N=C(/N=Nc2nc(C)cc(=O)[nH]2)c2ccccc2)cc1"
  unit-descriptor: "%"
  inhibition: 26.3
- compound: "COc1cc(/C=C2\\SC(=O)N(c3ccc(Cl)cc3)C2=O)cc([N+](=O)[O-])c1O"
  unit-descriptor: "%"
  inhibition: -5.87
- compound: "COc1ccc(/C=N/NC(=O)C2c3ccccc3-c3ccccc32)cc1"
  unit-descriptor: "%"
  inhibition: 1.63
- compound: "COc1cc(N=Nc2ccc(C(=O)N(C)C)cc2)c(C)cc1N"
  unit-descriptor: "%"
  inhibition: 11.5
- compound: "Cc1ccc(C(=O)OCC(=O)c2ccc(Cl)s2)s1"
  unit-descriptor: "%"
  inhibition: 1.17
- compound: "COCCCNC(=S)NNC(=O)c1csc(C)n1"
  unit-descriptor: "%"
  inhibition: -15.3
- compound: "O=C(CN1C(=O)c2ccc([N+](=O)[O-])cc2C1=O)Nc1ccccc1N1CCCC1"
  unit-descriptor: "%"
  inhibition: -7.2

====

assay-info: H1N1 influenza NS1A inhibitors, functional cell based assay (AID 504329)
assay-context: percent inhibition, at 12.5 µM, stronger effect = higher value
Among all 340,000 compounds or so, about 1,000 (0.29%) were called active. Not all results are given here. Entries with a potency or affinity are not part of this list.
Each entry below carries its reported inhibition.
readout-label: inhibition (%)

- compound: "CCCCC(=O)NC(c1ccccc1)c1ccc2cccnc2c1O (stereo unspecified)"
  readout-label: "inhibition"
  unit-descriptor: "%"
  result: 17.1
- compound: "CCCC(=O)NC(c1ccc(C(C)C)cc1)c1ccc2cccnc2c1O (stereo unspecified)"
  readout-label: "inhibition"
  unit-descriptor: "%"
  result: -11.7
- compound: "CSc1ncc(/C=C2/C(=O)NC(=O)N(C)C2=O)cn1"
  readout-label: "inhibition"
  unit-descriptor: "%"
  result: 6.14
- compound: "Cc1ccc(S(=O)(=O)CCC(=O)OC2CC(C)OC2=O)cc1 (stereo unspecified)"
  readout-label: "inhibition"
  unit-descriptor: "%"
  result: -7.36
- compound: "CCCC(=O)NC(c1ccc(C)cc1)c1ccc2cccnc2c1O (stereo unspecified)"
  readout-label: "inhibition"
  unit-descriptor: "%"
  result: 4.97
- compound: "Cc1ccc(Cn2c(C(CO)Nc3nc(-c4ccc(Cl)c([N+](=O)[O-])c4)cs3)nc3ccccc32)cc1 (stereo unspecified)"
  readout-label: "inhibition"
  unit-descriptor: "%"
  result: 1.74
- compound: "CCc1cccc2sc(NC(=O)C3CC3)nc12"
  readout-label: "inhibition"
  unit-descriptor: "%"
  result: -5.24
- compound: "Cc1ccc(NC(=O)CSc2nc3ccccc3c(=O)n2CCCC(=O)N2CCCC2)cc1"
  readout-label: "inhibition"
  unit-descriptor: "%"
  result: -0.44
- compound: "Cc1cc(C)n(Cc2ccc(C(=O)Nc3cccc(Br)c3)o2)n1"
  readout-label: "inhibition"
  unit-descriptor: "%"
  result: 26.6
- compound: "CN=c1scc(-c2ccco2)n1/N=C/c1ccc(O)c(O)c1"
  readout-label: "inhibition"
  unit-descriptor: "%"
  result: 19.1
- compound: "O=C1C(c2c(O)[nH]c3ccccc23)=Nc2ccccc21"
  readout-label: "inhibition"
  unit-descriptor: "%"
  result: 4.56

Origin of values: PubChem BioAssay AID504329
